The values you see were collected from patent US11932656B1.

- Target desc: human recombinant COX-2 (Homo sapiens, UniProt P35354)
- Construct: purchased Cayman Chemical, USA 560131
- Sequence (P35354 18-604): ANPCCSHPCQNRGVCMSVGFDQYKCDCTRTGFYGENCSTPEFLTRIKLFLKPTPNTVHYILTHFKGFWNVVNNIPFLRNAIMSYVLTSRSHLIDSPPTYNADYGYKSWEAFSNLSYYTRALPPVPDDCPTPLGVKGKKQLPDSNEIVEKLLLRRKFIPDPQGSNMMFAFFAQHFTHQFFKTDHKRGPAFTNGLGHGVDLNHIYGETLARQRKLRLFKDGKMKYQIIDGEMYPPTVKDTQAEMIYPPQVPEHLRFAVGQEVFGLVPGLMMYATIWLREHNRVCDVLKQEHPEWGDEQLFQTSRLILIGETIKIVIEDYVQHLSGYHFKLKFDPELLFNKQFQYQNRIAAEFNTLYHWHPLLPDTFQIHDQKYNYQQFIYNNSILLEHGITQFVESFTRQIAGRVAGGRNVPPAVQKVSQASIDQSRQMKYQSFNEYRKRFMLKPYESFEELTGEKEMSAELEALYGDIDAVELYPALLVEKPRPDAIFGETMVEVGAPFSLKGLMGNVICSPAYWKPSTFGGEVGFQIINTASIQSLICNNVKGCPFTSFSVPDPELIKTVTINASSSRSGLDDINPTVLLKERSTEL
- Assay text: COX Inhibitor Screening Assay, COX-2 (EIA of PGF2α)
- Type: biochemical
- Experimental conditions: ratio COX-1 IC50/COX-2 IC50
Outcome measure: SI (selectivity index, COX-1 IC50/COX-2 IC50)

Some solved entries appear below for comparison.
Cc1sc2nc(Cc3ccc(F)cc3)[nH]c(=O)c2c1C 4.81
Cc1sc2nc(NC(=O)c3ccccc3C(F)(F)F)[nH]c(=O)c2c1C 0.12

1 = Cc1sc2nc(NC(=O)c3ccc(F)cc3)[nH]c(=O)c2c1C
2 = COc1ccc(Cc2nc3sc(C)c(C)c3c(=O)[nH]2)cc1
// max by SI (selectivity index, COX-1 IC50/COX-2 IC50) over [ 1 , 2 ] State the label of the item chosen. 2
